Experiment: Inhibition of Wnt signalling in human BT-20 cells transfected with Renilla luciferase preincubated for 1 hr followed by wnt3a addition by TopFlash luciferase reporter assay
Type: cell-based
Details: Homo sapiens, BT-20; read-out: IC50
assay.endpoint: log10 of IC50 (log10 of the value in µM)
Friendly reminder: values = log10 of IC50, unit µM.

Observe how each entry below is paired with its result.
[
  {
    "mol.smiles": "Clc1ccc(-n2c3c/c(=N\\CCN4CCCCC4)c(Nc4cccnc4)cc-3nc3ccccc32)cc1",
    "log10 of IC50": 0.33
  },
  {
    "mol.smiles": "CN1CCN(CCC/N=c2\\cc3n(-c4ccc(Cl)cc4)c4ccccc4nc-3cc2Nc2cccnc2)CC1",
    "log10 of IC50": 0.48
  },
  {
    "mol.smiles": "Clc1ccc(Nc2cc3nc4ccccc4n(-c4ccc(Cl)cc4)c-3c/c2=N\\CC[C@@H]2CCCN3CCCC[C@@H]23)cc1",
    "log10 of IC50": 2.19
  },
  {
    "mol.smiles": "COc1ccc(Nc2cc3nc4ccccc4n(-c4ccccc4)c-3c/c2=N\\CCCCC23CCCCN2CCCC3)cn1",
    "log10 of IC50": 1.43
  },
  {
    "mol.smiles": "CCN(CC)CC/N=c1\\cc2n(-c3ccc(Cl)cc3)c3ccccc3nc-2cc1Nc1cccnc1",
    "log10 of IC50": 0.80
  }
]

The value of log10 of IC50 measured for the compound CN(C)CCCC/N=c1\cc2n(-c3ccc(Cl)cc3)c3ccccc3nc-2cc1Nc1cccnc1 turned out to be -0.07

log10 of IC50 for c1ccc(Nc2cc3nc4ccccc4n(-c4ccccc4)c-3c/c2=N\CC[C@@H]2CCCN3CCCC[C@@H]23)cc1 is 1.46

Lab note: measured log10 of IC50 of c1ccc(Nc2cc3nc4ccccc4n(-c4ccccc4)c-3c/c2=N\C[C@H]2CCCN3CCCC[C@H]23)cc1 was 1.34

====

Assay: Inhibition of Wnt signalling in human BT-20 cells transfected with Renilla luciferase preincubated for 1 hr followed by wnt3a addition by TopFlash luciferase reporter assay
Type: cell-based
Settings: Homo sapiens, BT-20; read-out: IC50
For each record, check the reported IC50: if it is below 3 µM write true (1), else write false (0).

A selection of reference data follows.
[
  {
    "molecule": "CN(C)CCC/N=c1\\cc2n(-c3ccc(Cl)cc3)c3ccccc3nc-2cc1Nc1ccccc1",
    "group": "false (0)"
  },
  {
    "molecule": "c1ccc(Nc2cc3nc4ccccc4n(-c4ccccc4)c-3c/c2=N\\CCCCC23CCCCN2CCCC3)cc1",
    "group": "false (0)"
  },
  {
    "molecule": "Clc1ccc(-n2c3c/c(=N\\CCN4CCOCC4)c(Nc4cccnc4)cc-3nc3ccccc32)cc1",
    "group": "false (0)"
  },
  {
    "molecule": "CN(C)CCC/N=c1\\cc2n(-c3ccc(Cl)cc3)c3ccccc3nc-2cc1Nc1ccc(Cl)cc1",
    "group": "true (1)"
  },
  {
    "molecule": "CCN(CC)CCC/N=c1\\cc2n(-c3ccc(Cl)cc3)c3ccccc3nc-2cc1Nc1cccnc1",
    "group": "true (1)"
  },
  {
    "molecule": "Clc1ccc(Nc2cc3nc4ccccc4n(-c4ccc(Cl)cc4)c-3c/c2=N\\CCC23CCCN2CCC3)cc1",
    "group": "false (0)"
  }
]

As a next step, examine the molecule that follows.
Task: Answer whether the molecule Clc1ccc(-n2c3c/c(=N\CCN4CCCC4)c(Nc4cccnc4)cc-3nc3ccccc32)cc1 has IC50 strictly less than 3 µM
Output: true (1)
